Test: Plasma pharmacokinetics and tissue distribution 2 h after oral cabazitaxel 10 mg/kg with vehicle or 25 mg/kg ritonavir in wild-type, Oatp1a/1b−/−, Oatp1a/1b/2b1−/−, OATP1B1- and OATP1B3-transgenic mice
Assay type: in vivo
Settings: male, FVB, mouse, plasma, po, 10 mg/kg, Oatp1a/1b/2b1−/− mice; ritonavir 25 mg/kg oral; cabazitaxel 10 mg/kg oral
value type: Tmax (h)
The response must be a number in h with no trailing unit.

Value of measured Tmax for the entry CO[C@H]1C(=O)[C@]2(C)[C@@H](OC)C[C@H]3OC[C@@]3(OC(C)=O)[C@H]2[C@H](OC(=O)c2ccccc2)[C@]2(O)C[C@H](OC(=O)[C@H](O)[C@@H](NC(=O)OC(C)(C)C)c3ccccc3)C(C)=C1C2(C)C : 1.17
